src = paper PMC10221418

# subject-of-test: human AKR7A2 (Homo sapiens, UniProt O43488)
# Construct: made in house; host or cells: E. coli BL21 (DE3) pLysS, pET-28a vector
# Sequence (O43488 39-359): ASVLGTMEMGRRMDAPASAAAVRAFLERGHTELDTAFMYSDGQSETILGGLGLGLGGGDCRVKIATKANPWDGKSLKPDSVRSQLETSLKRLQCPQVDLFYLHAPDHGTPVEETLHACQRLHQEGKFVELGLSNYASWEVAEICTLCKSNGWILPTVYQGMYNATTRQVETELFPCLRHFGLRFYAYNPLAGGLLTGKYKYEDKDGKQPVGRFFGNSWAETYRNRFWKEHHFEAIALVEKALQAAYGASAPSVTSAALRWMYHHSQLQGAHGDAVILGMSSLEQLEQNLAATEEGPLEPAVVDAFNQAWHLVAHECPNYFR
# assay-info: Steady-state kinetics of AKR7A2 catalyzing 2-CBA in the absence or presence of azole drugs
# Type: biochemical
# condition-summary: substrate 2-CBA; drug concentration 20 μM
Label satisfied when kcat < 70 min⁻¹; otherwise not satisfied.

>>> df
                                   compound    label_value
0  CCC(C)n1ncn(-c2ccc(N3CCN(c4ccc(OCC5COC(Cn6cncn6)(c6ccc(Cl)cc6Cl)O5)cc4)CC3)cc2)c1=O (stereo not shown)  not satisfied
1  Clc1ccc(COC(Cn2ccnc2)c2ccc(Cl)cc2Cl)cc1 (stereo not shown)  not satisfied
2  C[C@@H](c1ncncc1F)[C@](O)(Cn1cncn1)c1ccc(F)cc1F      satisfied
3  CC(=O)N1CCN(c2ccc(OCC3COC(Cn4ccnc4)(c4ccc(Cl)cc4Cl)O3)cc2)CC1 (stereo not shown)  not satisfied
4  CC[C@@H]([C@H](C)O)n1ncn(-c2ccc(N3CCN(c4ccc(OC[C@@H]5CO[C@@](Cn6cncn6)(c6ccc(F)cc6F)C5)cc4)CC3)cc2)c1=O  not satisfied
